# TARGET: T1, SARS-CoV-2 N protein oligomerization domain (SARS-CoV-2, UniProt P0DTC9 247-364)
# T1 construct: also called N olig. domain; OD
# PROCEDURE_DETAILS: Octet, KD (nM) heat map

>  <BINDER>
NP3-E5 (antibody, V domains shown) VH: EVQLVESGGGLVKPGGSLKLSCAASGFTFSDYYMSWVRQTPEKRLEWVATISDGGNYTYYPDSVKGRFTISRDNAKNNLYLQMSSLKSEDTAMYYCARGSTYGNPLDHWGQGTTLTVSS VL: DIQMTQTTSSLSASLGDRVTINCSASQGISNYLNWYQQKPDGTVKLLIYYTSILHSGVPSRFSGSGSGTDYSLTISNLEPEDIATYYCQQYSKLPFTFGSGTKLEIK

>  <binding result>
no binding

$$$$
>  <BINDER>
NP3-E11 (antibody, V domains shown) VH: EVQLQQSGPELVRPGVSVKISCKGSGYTFTDYVMHWVKQSHAKSLEWIGVISTYSGNTNYNQKFKGKATMTVDKSSNTVYMELARLTSEDSAIYYCTRGTGDFDYWGQGTTLTVSS VL: DIVMTQSHKFMSTSVGDRVSITCKASQDVGSAVAWYQQKPGQSPKLLIYWTSTRHTGVPDHFTGSGSGTDFTLTINNVQSEDLADYFCHQYSSYPYTFGGGTKLEIK

>  <binding result>
no binding

$$$$
>  <BINDER>
NP3-F4 (antibody, V domains shown) VH: EVQLVESGPELKKPGETVKIPCKTSGYTFTNYGMNWVKQAPGKGLKWMGWINTNTGEPTYAEDFKGRFAFSLETSASTAYLQISNLKNEDTATFFCARGSIYDGYYEGLYYWGQGTTLTVSS VL: DIKMTQSPSSLSVSVGETVTITCRASENIYSNLAWYQQKQGKSPQLLVSAATNLADNVPSRFSGSGSGTQYSLKINSLQSEDFGSYYCQHFWGFPRTFGGGTKLEIK

>  <binding result>
no binding

$$$$
